tested on: SJNB-8; test: IncuCyte live-cell imaging, antiproliferative effect; format: cell-based; conditions: Homo sapiens, 72 h, read-out: Cell GI50 72h, SJNB-8
quantity_name: GI50

[Q] Quick one: GI50 of Cc1cc(Nc2ccc(F)c(CC3(C(=O)N4CCC(CN5CCN(c6ccc(N7CCC(=O)NC7=O)cn6)CC5)CC4)CCN(Cc4cccc(Cl)c4F)CC3)n2)n[nH]1 ?
[A] < 100 nM

[Q] And what about the molecule Cc1cc(Nc2ccc(F)c(CC3(C(=O)N4CCC(F)(CN5CCN(c6ccc(N7CCC(=O)NC7=O)cn6)CC5)CC4)CCN(Cc4cccc(Cl)c4F)CC3)n2)n[nH]1 ?
[A] < 100 nM

[Q] And what about the molecule Cc1cc(Nc2nc(CC3(C(=O)O)CCN(C(=O)c4cccc(Cl)c4Cl)CC3)ccc2F)n[nH]1 [TAS-119, reference compound] ?
[A] 44 nM

[Q] And what about the molecule O=C1CCC(N2C(=O)c3cccc(OCCOCCOCCOCCNC(=O)[C@]4(Cc5cccc(Nc6nccs6)n5)CC[C@@H](Oc5cccc(Cl)c5F)CC4)c3C2=O)C(=O)N1 (some centres unmarked) [SK2188, reference compound] ?
[A] 173 nM

[Q] And what about the molecule O=C(O)[C@]1(Cc2cccc(Nc3nccs3)n2)CC[C@@H](Oc2cccc(Cl)c2F)CC1 [MK-5108, reference compound] ?
[A] 348 nM

* * *

assay: In vivo pharmacokinetics study; set-up: species or system ICR (CD-1) mice; details: male, ICR (CD-1), mouse, plasma; mice, PO 30 mg/kg vs IV 15 mg/kg
Listed molecules paired with reported bioavailability
Express your answer in %, writing the number without its unit.

smiles_structure	quantity_name	obs_value
Cc1cc(Nc2ccc(F)c(CC3(C(=O)N4CCC(CN5CCN(c6ccc(N7CCC(=O)NC7=O)cn6)CC5)CC4)CCN(Cc4cccc(Cl)c4F)CC3)n2)n[nH]1	bioavailability	7

[Q] Quick one: bioavailability of Cc1cc(Nc2ccc(F)c(CC3(C(=O)N4CCC(F)(CN5CCN(c6ccc(N7CCC(=O)NC7=O)cn6)CC5)CC4)CCN(Cc4cccc(Cl)c4F)CC3)n2)n[nH]1 ?
[A] 11

* * *

Listed molecules paired with reported AURKA Degradation 24h @100nM
biological target: AURKA (Homo sapiens); experiment: AURKA degradation, Simple Western; type: cell-based; design: Representative Western blot showing levels of endogenous proteins MDR1, MYCN, AURKA, and CRBN in untreated cell lines; endogenous in cells; host or cells: NGP, IMR-32, SJNB-8, SK-N-BE(2)-C, SK-N-SH, SK-N-AS, SJNB-1, RPE, HEK293T; conditions: 24h, 100nM;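 as to AURKA Degradation 24h @100nM: measured in NGP neuroblastoma cells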
Sequence (O14965 whole entry): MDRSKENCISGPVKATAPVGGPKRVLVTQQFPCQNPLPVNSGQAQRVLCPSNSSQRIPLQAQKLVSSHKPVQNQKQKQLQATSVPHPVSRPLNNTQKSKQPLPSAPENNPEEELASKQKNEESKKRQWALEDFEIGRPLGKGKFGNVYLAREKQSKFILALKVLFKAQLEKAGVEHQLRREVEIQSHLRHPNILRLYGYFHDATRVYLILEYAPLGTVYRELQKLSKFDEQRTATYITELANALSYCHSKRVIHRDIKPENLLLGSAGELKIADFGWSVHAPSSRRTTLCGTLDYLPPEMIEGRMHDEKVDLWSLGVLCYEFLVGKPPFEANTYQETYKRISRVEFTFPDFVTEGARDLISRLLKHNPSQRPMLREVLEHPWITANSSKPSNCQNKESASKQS
Answer with a number only.

Example molecules with recorded AURKA Degradation 24h @100nM:
molecule	obs_value
O=C1CCC(N2C(=O)c3cccc(OCCOCCOCCN4CCN(C(=O)[C@]5(Cc6cccc(Nc7nccs7)n6)CC[C@@H](Oc6cccc(Cl)c6F)CC5)CC4)c3C2=O)C(=O)N1 (stereo partly drawn)	80
O=C1CCC(Nc2ccc(N3CCN(C(=O)COCCOCCNC(=O)[C@]4(Cc5cccc(Nc6nccs6)n5)CC[C@@H](Oc5cccc(Cl)c5F)CC4)CC3)cc2)C(=O)N1 (stereo partly drawn)	39
O=C1CCN(c2ccc(N3CCN(CC4CCN(C(=O)[C@]5(Cc6cccc(Nc7nccs7)n6)CC[C@@H](Oc6cccc(Cl)c6F)CC5)C4)CC3)nc2)C(=O)N1 (stereo partly drawn)	90
O=C1CCN(Cc2ccc(C3CCN(CC4CCN(C(=O)[C@]5(Cc6cccc(Nc7nccs7)n6)CC[C@@H](Oc6cccc(Cl)c6F)CC5)CC4)CC3)nc2)C(=O)N1	78
O=C1CCC(Nc2ccc(N3CCN(CC4CCN(C(=O)[C@]5(Cc6cccc(Nc7nccs7)n6)CC[C@@H](Oc6cccc(Cl)c6F)CC5)CC4)CC3)c(F)c2)C(=O)N1 (stereo partly drawn)	83

[Q] Quick one: AURKA Degradation 24h @100nM of Cc1cc(Nc2ccc(F)c(CC3(C(=O)N4CC(N5CCN(c6ccc(NC7CCC(=O)NC7=O)cc6F)CC5)C4)CCN(Cc4cccc(Cl)c4F)CC3)n2)n[nH]1 (stereo not drawn) ?
[A] 78

[Q] And what about the molecule O=C1CCN(Cc2ccc(C3CCN(C4CN(C(=O)[C@]5(Cc6cccc(Nc7nccs7)n6)CC[C@@H](Oc6cccc(Cl)c6F)CC5)C4)CC3)nc2)C(=O)N1 ?
[A] 86

[Q] And what about the molecule O=C1CCC(N2C(=O)c3ccc(N4CCN(CCOCCOCCNC(=O)[C@]5(Cc6cccc(Nc7nccs7)n6)CC[C@@H](Oc6cccc(Cl)c6F)CC5)CC4)cc3C2=O)C(=O)N1 (stereo partly drawn) ?
[A] 76

* * *

molecular target: AURKA (Homo sapiens); test: AURKA degradation, Simple Western; type: cell-based; set-up: Representative Western blot showing levels of endogenous proteins MDR1, MYCN, AURKA, and CRBN in untreated cell lines; endogenous in cells; host or cells: NGP, IMR-32, SJNB-8, SK-N-BE(2)-C, SK-N-SH, SK-N-AS, SJNB-1, RPE, HEK293T; details: NGP, 24 h treatment
quantity_name: Dmax (%)
Express your answer in %, writing the number without its unit.

Example molecules with recorded Dmax:
molecule	Dmax / %
Cc1cc(Nc2ccc(F)c(CC3(C(=O)N4CCC(CN5CCN(c6ccc(N7CCC(=O)NC7=O)cn6)CC5)CC4)CCN(Cc4cccc(Cl)c4F)CC3)n2)n[nH]1	90
O=C1CCC(Nc2ccc(N3CCN(C4CN(C(=O)[C@]5(Cc6cccc(Nc7nccs7)n6)CC[C@@H](Oc6cccc(Cl)c6F)CC5)C4)CC3)c(F)c2)C(=O)N1 (some centres unmarked)	92

[Q] Quick one: Dmax of O=C1CCC(N2C(=O)c3cccc(OCCOCCOCCOCCNC(=O)[C@]4(Cc5cccc(Nc6nccs6)n5)CC[C@@H](Oc5cccc(Cl)c5F)CC4)c3C2=O)C(=O)N1 (some centres unmarked) [SK2188, reference compound] ?
[A] 89

[Q] And what about the molecule Cc1cc(Nc2ccc(F)c(CC3(C(=O)N4CCC(F)(CN5CCN(c6ccc(N7CCC(=O)NC7=O)cn6)CC5)CC4)CCN(Cc4cccc(Cl)c4F)CC3)n2)n[nH]1 ?
[A] 89

[Q] And what about the molecule O=C1CCN(c2ccc(N3CCN(CC4CN(C(=O)[C@]5(Cc6cccc(Nc7nccs7)n6)CC[C@@H](Oc6cccc(Cl)c6F)CC5)C4)CC3)nc2)C(=O)N1 ?
[A] 90

* * *

Listed compounds paired with reported AURKA Degradation 24h @1000nM
biological target: AURKA (Homo sapiens); assay: AURKA degradation, Simple Western; assay type: cell-based; parameters: Representative Western blot showing levels of endogenous proteins MDR1, MYCN, AURKA, and CRBN in untreated cell lines; endogenous in cells; host or cells: NGP, IMR-32, SJNB-8, SK-N-BE(2)-C, SK-N-SH, SK-N-AS, SJNB-1, RPE, HEK293T; settings: 24h, 1000nM;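 as to AURKA Degradation 24h @1000nM: measured in NGP neuroblastoma cells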
Answer with a number only.

Example compounds with recorded AURKA Degradation 24h @1000nM:
compound	AURKA Degradation 24h @1000nM
O=C1CCC(N2C(=O)c3cccc(N4CCN(C(=O)COCCOCCNC(=O)[C@]5(Cc6cccc(Nc7nccs7)n6)CC[C@@H](Oc6cccc(Cl)c6F)CC5)CC4)c3C2=O)C(=O)N1 (some centres unmarked) [PROTAC 2]	81
O=C1CCC(N2C(=O)c3ccc(OCCOCCN4CCN(C(=O)[C@]5(Cc6cccc(Nc7nccs7)n6)CC[C@@H](Oc6cccc(Cl)c6F)CC5)CC4)cc3C2=O)C(=O)N1 (some centres unmarked) [PROTAC 11]	80
O=C1CCN(c2ccc(C3CCN(C4CN(C(=O)[C@]5(Cc6cccc(Nc7nccs7)n6)CC[C@@H](Oc6cccc(Cl)c6F)CC5)C4)CC3)nc2)C(=O)N1 [PROTAC 28]	78
O=C1CCC(N2C(=O)c3ccc(OCCN4CCN(C(=O)[C@]5(Cc6cccc(Nc7nccs7)n6)CC[C@@H](Oc6cccc(Cl)c6F)CC5)CC4)cc3C2=O)C(=O)N1 (some centres unmarked) [PROTAC 10]	80

Consider now this further compound.
[Q] Quick one: AURKA Degradation 24h @1000nM of O=C1CCC(N2C(=O)c3ccc(N4CCN(CCOCCNC(=O)[C@]5(Cc6cccc(Nc7nccs7)n6)CC[C@@H](Oc6cccc(Cl)c6F)CC5)CC4)cc3C2=O)C(=O)N1 (some centres unmarked) [PROTAC 6] ?
[A] 82

* * *

experiment: Metabolic stability in mouse hepatocytes (MH); format: in vitro ADME, CD-1 mouse; details: CD-1
Listed molecules paired with reported hepatocyte CLint at 1 μM

molecule	hepatocyte CLint at 1 μM
O=C1CCC(Nc2ccc(N3CCN(C4CN(C(=O)[C@]5(Cc6cccc(Nc7nccs7)n6)CC[C@@H](Oc6cccc(Cl)c6F)CC5)C4)CC3)c(F)c2)C(=O)N1 (stereo partly drawn) [PROTAC 18]	< 4.1 µL/min/1e6 cells
Cc1cc(Nc2ccc(F)c(CC3(C(=O)N4CC(N5CCN(c6ccc(NC7CCC(=O)NC7=O)cc6F)CC5)C4)CCN(Cc4cccc(Cl)c4F)CC3)n2)n[nH]1 (stereo not drawn) [PROTAC 29]	< 4.1 µL/min/1e6 cells

Consider now this further molecule.
[Q] Quick one: hepatocyte CLint at 1 μM of O=C1CCC(Nc2ccc(N3CCN(C4CN(C(=O)[C@]5(Cc6cccc(Nc7nccs7)n6)CC[C@@H](Oc6cccc(Cl)c6F)CC5)C4)CC3)nc2)C(=O)N1 (stereo partly drawn) [PROTAC 20] ?
[A] < 4.1 µL/min/1e6 cells
